B1: HDV Ribozyme (parent)
chain: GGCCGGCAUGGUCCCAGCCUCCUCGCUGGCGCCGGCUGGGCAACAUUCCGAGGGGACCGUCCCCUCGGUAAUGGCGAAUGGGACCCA

Variants of: B1
Measurement protocol: self-cleavage, relative activity (ratio to wild type); higher = more cleavage; co-transcriptional
Answer no if self-cleavage is under 0.5, and yes if it is 0.5 or more.

Mutation code	Assigned label
G35U A51C	no
G10A U60C	yes
G25C C86G	no
G25U C26U	no
C18G C86A	no
A45U G68A	yes
U23G C66G	no
U23A C58A	yes
C30A C75G	no
G11A U65G	no
G35U A42C	no
C15U G67A	yes
G38C C63A	no
C44U U47A	yes
C32U C49A	yes
C7G C62A	no
G10A A70C	no
U60C G67U	yes
C7G C86A	no
U69C U79A	yes
C4A C24U	no
C3G G34C	no
C58U G80C	no
U9A G17A	yes
G2U C44U	no
C21A C85A	no
G1U U37A	yes
G6C A70U	no
C30G U60A	no
C21G G73A	no
C14G A16U	yes
G25C C49A	no
C13A C49G	no
G28A C30U	no
C3U G53C	yes
G68A G82A	no
C49U A83C	yes
A56U G82U	no
U12G A16G	yes
A56U A70C	yes
G1C G52C	no
C7A U9A	no
G34C C61A	no
C13A C75U	no
U23C G38U	no
G68U A83U	yes
G54U C84G	yes
C3G U9C	yes
G11C C14G	no
G68C G80A	no
U47G C62G	yes
G31C A43G	no
C18A U23A	no
U65C C66U	yes
C3A G17C	no
G35A G53A	no
A16U G81A	yes
U20G U47A	no
U65C U69C	yes
G54U G59A	yes
U23A A78G	yes
C7U C63U	yes
C26A U79G	yes
C36A C64U	no
G28U G68U	no
C4A G5C	no
C64A G68A	yes
G5A G50U	no
C15A C49G	no
G74U G81U	no
G52A G82U	no
G52A C57A	yes
G11U C85A	yes
C21A G50C	no
A8C U27A	yes
C33A U47A	no
A8G G50A	yes
G28C G31C	no
C4G G50A	no
C49G C84G	no
C18G C84G	no
G29A C58A	no
C15U G25A	no
C48G G74A	no
G5C U9A	no
C3G C30A	no
U60A C85U	yes

Taken from the RNAGym collection of RNA variant scans (doi:10.7554/elife.80360).
